biological target: human PDE4B1 (Homo sapiens); construct: host or cells: Sf9 cells; experiment: cAMP HTRF assay to determine the activity of hPDE4B1; assay type: biochemical; conditions: inhibition of PDE4B at a test concentration of 1 μM, 1 µM
Sequence (Q07343 whole entry): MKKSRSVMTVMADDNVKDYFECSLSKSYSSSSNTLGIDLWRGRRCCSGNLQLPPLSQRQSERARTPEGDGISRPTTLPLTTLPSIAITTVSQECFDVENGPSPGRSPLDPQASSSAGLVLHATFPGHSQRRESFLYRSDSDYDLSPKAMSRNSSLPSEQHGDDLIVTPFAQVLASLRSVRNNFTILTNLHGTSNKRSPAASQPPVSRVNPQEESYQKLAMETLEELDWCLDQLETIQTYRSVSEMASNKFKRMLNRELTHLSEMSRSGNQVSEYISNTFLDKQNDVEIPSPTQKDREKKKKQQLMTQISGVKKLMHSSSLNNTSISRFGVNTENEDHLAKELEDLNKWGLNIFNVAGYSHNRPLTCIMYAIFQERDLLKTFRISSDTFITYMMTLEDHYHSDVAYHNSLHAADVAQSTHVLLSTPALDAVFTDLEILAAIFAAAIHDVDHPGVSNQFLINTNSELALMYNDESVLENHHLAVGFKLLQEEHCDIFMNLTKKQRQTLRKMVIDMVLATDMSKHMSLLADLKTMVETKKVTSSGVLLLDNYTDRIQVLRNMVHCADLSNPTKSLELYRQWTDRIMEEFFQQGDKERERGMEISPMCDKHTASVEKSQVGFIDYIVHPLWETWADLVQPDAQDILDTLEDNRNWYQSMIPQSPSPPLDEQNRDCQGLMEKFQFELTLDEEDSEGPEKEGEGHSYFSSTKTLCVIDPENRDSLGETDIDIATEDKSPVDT
quantity: Inhibition in %
Give your result as the value with the unit written after it.

Task: I am curious: what Inhibition in % value has been reported for CC(O)c1cn(-c2ncc(-c3ccccc3F)cn2)c2cc(C(=O)N3CCOCC3)ccc12 (single isomer, unassigned) [Example 252] ?
Output: 97%

Task: So what's the measured Inhibition in % for this one? CC1CC(C)CN(C(=O)c2ccc3c([S+](C)[O-])cn(-c4ncc(-c5ccccc5F)cn4)c3c2)C1 (single isomer, unassigned) [Example 373]
Output: 36%

Task: Inhibition in % for COc1cccc(-c2cnc(-n3cc([S+](C)[O-])c4ccc(C(=O)N5CCNC(=O)C5)cc43)nc2)c1 (single isomer, unassigned) [Example 218] ?
Output: 98%

Task: Item COc1ccc(F)c(-c2cnc(-n3cc([S+](C)[O-])c4ccc(C(=O)N5CCNC(=O)C5)cc43)nc2)c1 (single isomer, unassigned) [Example 214] has what recorded Inhibition in %?
Output: 92%

Task: Fill in: Inhibition in % of COc1ccc(F)c(-c2cnc(-n3cc([S+](C)[O-])c4ccc(C(=O)N5CCOCC5)cc43)nc2)c1 (single isomer, unassigned) [Example 161] is ___
Output: 109%

Task: # lookup: Inhibition in % of Cc1cccc(-c2cnc(-n3cc([S+](C)[O-])c4ccc(C(=O)N5CCNC(=O)C5)cc43)nc2)c1 (single isomer, unassigned) [Example 216]
Output: 94%

----------
molecular target: human PDE4B1 (Homo sapiens); construct: host or cells: Sf9 cells; assay: TR-FRET assay using the LANCE Ultra cAMP kit to determine the activity of hPDE4B1; assay type: biochemical; settings: test concentration 10 μM (marked in cell), read-out: Inhibition in % (inhibition of PDE4B)
Kindly state inhibition at 10 µM for each of the entries shown.
Phrase the answer as number then unit, nothing more needed.

Task: For human PDE4B1 (Homo sapiens), provide inhibition at 10 µM of CN(CC(N)=O)C(=O)c1ccc2c([S+](C)[O-])cn(-c3ncc(-c4cc(C5CC5)ccn4)cn3)c2c1 (single isomer, unassigned) please.
Output: 87%

Task: Which inhibition at 10 µM is reported with human PDE4B1 (Homo sapiens) for this entry: C[S+]([O-])c1cn(-c2ncc(-c3cc(C4(O)CC4)ccn3)cn2)c2cc(C(=O)N3CCOCC3)ccc12 (stereo not shown) ?
Output: 98%

Task: Given the entry Cc1ccc(F)c(-c2cnc(-n3cc([S+](C)[O-])c4ccc(C(=O)N(C)CCO)cc43)nc2)c1 (stereo not shown) , what inhibition at 10 µM was observed with human PDE4B1 (Homo sapiens)?
Output: 97%

Task: GET /values?readout=inhibition at 10 µM&system=human PDE4B1 (Homo sapiens)&item= C[S+]([O-])c1cn(-c2ncc(-c3cc(C4CC4)ccn3)cn2)c2cc(C(=O)N3CC[C@@H](N)C3)ccc12 (stereo partly shown)
Output: 105%

Task: Checklist item: inhibition at 10 µM tested on human PDE4B1 (Homo sapiens), entry CCOc1ccc(F)c(-c2cnc(-n3cc([S+](C)[O-])c4ccc(C(=O)N(C)CCO)cc43)nc2)c1 (stereo not shown) , value?
Output: 98%

Task: Which inhibition at 10 µM is reported with human PDE4B1 (Homo sapiens) for this entry: Cc1ccnc(-c2cnc(-n3cc(C(C)O)c4ccc(C(=O)N(C)CC(N)=O)cc43)nc2)c1 (stereo not shown) ?
Output: 82%

Task: # returns recorded inhibition at 10 µM (system: human PDE4B1 (Homo sapiens)) for Cc1ccc(F)c(-c2cnc(-n3cc(C(C)O)c4ccc(C(=O)N(C)C)cc43)nc2)c1 (stereo not shown)
Output: 100%

Data origin: patent US9315490B2
